- target-entity: recombinant homotrimeric HA A/South Carolina/1/18 H1N1 (Influenza A virus A/South Carolina/1/18 (H1N1))
- assay-procedure: protein microarray, purified IgG, trimeric HA
- settings: remark: other sources report otherwise
Overview of reported Trimeric HA Binding: RLU across a group of binders:
State the result as a value with its unit after it.

Here is how some binders turned out for Trimeric HA Binding: RLU.
{"binder": "TCN-542 (5079_A16) (antibody, V domains shown) VH: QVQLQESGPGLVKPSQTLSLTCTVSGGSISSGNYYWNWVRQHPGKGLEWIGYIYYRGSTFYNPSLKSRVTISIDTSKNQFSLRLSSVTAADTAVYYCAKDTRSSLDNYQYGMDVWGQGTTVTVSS VL: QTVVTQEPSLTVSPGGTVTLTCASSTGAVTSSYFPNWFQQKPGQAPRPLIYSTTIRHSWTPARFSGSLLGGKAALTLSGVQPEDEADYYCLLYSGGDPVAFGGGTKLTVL", "reported-property": "Trimeric HA Binding: RLU", "val": "117 RLU"}
{"binder": "TCN-522 (3212_I12) (antibody, V domains shown) VH: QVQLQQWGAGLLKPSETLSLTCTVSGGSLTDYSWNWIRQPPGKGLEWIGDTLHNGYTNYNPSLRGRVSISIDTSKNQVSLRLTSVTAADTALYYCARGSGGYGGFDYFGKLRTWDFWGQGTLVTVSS VL: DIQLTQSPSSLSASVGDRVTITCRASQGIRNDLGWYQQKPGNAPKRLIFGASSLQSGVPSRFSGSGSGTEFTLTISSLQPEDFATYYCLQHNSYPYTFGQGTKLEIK", "reported-property": "Trimeric HA Binding: RLU", "val": "4500 RLU"}

From here, focus on the item given below.
Reported Trimeric HA Binding: RLU for TCN-554 (5277_M05) (antibody, V domains shown) VH: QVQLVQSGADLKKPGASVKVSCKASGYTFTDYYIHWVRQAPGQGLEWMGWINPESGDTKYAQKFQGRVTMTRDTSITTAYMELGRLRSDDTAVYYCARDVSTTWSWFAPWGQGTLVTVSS VL: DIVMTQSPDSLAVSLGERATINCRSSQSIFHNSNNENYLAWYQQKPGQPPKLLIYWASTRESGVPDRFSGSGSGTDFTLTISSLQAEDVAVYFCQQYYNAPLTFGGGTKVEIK was 166 RLU
